# Test system: human sputum elastase-induced lung hemorrhage in hamsters
# Protocol Text: Elastase-induced pulmonary damage (lung hemorrhage) in hamsters
# Assay type: in vivo, hamster
# Protocol Conditions: 1 μg/site intratracheal, 5 min predose
Measured Attribute: % inhibition of elastase-induced lung hemorrhage (%)
Note: unit % is implicit; provide only the numeric part.

So for CC(C)C(NC(=O)CN(C(=O)[C@@H](NC(=O)c1ccc(C(=O)NCCN2CCOCC2)cc1)C(C)C)C1Cc2ccccc2C1)C(=O)C(F)(F)F (mixture of isomers) , the logged % inhibition of elastase-induced lung hemorrhage turned out to be 14.9

So for CC(C)C(NC(=O)[C@@H]1CCCN1C(=O)[C@@H](NC(=O)c1ccc(C(=O)NCCN2CCOCC2)cc1)C(C)C)C(=O)C(F)(F)F.Cl (mixture of isomers) , the logged % inhibition of elastase-induced lung hemorrhage turned out to be 13.6

So for CC(C)C(NC(=O)CN(C(=O)[C@@H](NC(=O)c1ccc(C(=O)NCC(=O)O)cc1)C(C)C)C1Cc2ccccc2C1)C(=O)C(F)(F)F (mixture of isomers) , the logged % inhibition of elastase-induced lung hemorrhage turned out to be 24.8

So for CC(C)C(NC(=O)[C@@H]1CCCN1C(=O)[C@@H](NC(=O)c1ccc(C(=O)NCC(=O)O)cc1)C(C)C)C(=O)C(F)(F)F (mixture of isomers) [Example 19] , the logged % inhibition of elastase-induced lung hemorrhage turned out to be 10.8

So for CC(C)C(NC(=O)[C@@H]1CCCN1C(=O)[C@@H](NC(=O)c1ccc(C(=O)NCC(=O)O)cc1)C(C)C)C(=O)C(F)(F)F (mixture of isomers) [Example 13] , the logged % inhibition of elastase-induced lung hemorrhage turned out to be 21.6

So for CC(C)C(NC(=O)[C@@H]1CCCN1C(=O)[C@@H](NC(=O)c1ccc(C(=O)NCCCC(=O)O)cc1)C(C)C)C(=O)C(F)(F)F (mixture of isomers) , the logged % inhibition of elastase-induced lung hemorrhage turned out to be 16.1

###

# Target Desc: porcine pancreas elastase (Type IV) (Sus scrofa, UniProt P00772)
# Construct: purchased Sigma Chemicals Co; host or cells: porcine pancreas (from the enzyme's name)
# Sequence (P00772 27-266): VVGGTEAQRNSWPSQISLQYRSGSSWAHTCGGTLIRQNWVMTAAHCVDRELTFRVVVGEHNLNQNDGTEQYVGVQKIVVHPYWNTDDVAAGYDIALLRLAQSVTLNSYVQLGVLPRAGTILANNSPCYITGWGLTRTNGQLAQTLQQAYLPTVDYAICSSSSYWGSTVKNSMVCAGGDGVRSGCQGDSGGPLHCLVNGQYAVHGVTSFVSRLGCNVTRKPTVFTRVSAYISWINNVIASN
# Protocol Text: Protease inhibition assay (in vitro), porcine pancreas elastase
# Type: biochemical
# Protocol Conditions: substrate N-succinyl-(Ala)3-p-nitroanilide, enzyme 5 μg/ml final; read-out: IC50 Porcine pancreas elastase
Provide the recorded IC50 for the entries that follow.

So for CC(C)C(NC(=O)[C@@H]1CCCN1C(=O)[C@@H](NC(=O)c1ccc(C(=O)N[C@H](Cc2ccccc2)C(=O)OCc2ccccc2)cc1)C(C)C)C(=O)C(F)(F)F (mixture of isomers) , the logged IC50 turned out to be 16 µM

So for CC(C)C(NC(=O)[C@@H]1CCCN1C(=O)[C@@H](NC(=O)Nc1ccc(C(=O)NCC(=O)N(C)C)cc1)C(C)C)C(=O)C(F)(F)F (mixture of isomers) , the logged IC50 turned out to be 3.8 µM

So for CC(C)C(NC(=O)CN(C(=O)[C@@H](NC(=O)c1ccc(C(=O)NCC(=O)O)cc1)C(C)C)C1Cc2ccccc2C1)C(=O)C(F)(F)F (mixture of isomers) , the logged IC50 turned out to be 16 µM

So for CC(C)C(NC(=O)[C@@H]1CCCN1C(=O)[C@@H](NC(=O)c1ccc(C(=O)NCCCC(=O)O)cc1)C(C)C)C(=O)C(F)(F)F (mixture of isomers) , the logged IC50 turned out to be 2.4 µM

So for CC(C)C(NC(=O)[C@@H]1CCCN1C(=O)[C@@H](NC(=O)c1ccc(C(=O)NN2CCOCC2)cc1)C(C)C)C(=O)C(F)(F)F (mixture of isomers) , the logged IC50 turned out to be 2.9 µM

So for CC(C)C(NC(=O)[C@@H]1CCCN1C(=O)[C@@H](NC(=O)c1ccc(C(=O)N[C@@H](CCC(=O)O)C(=O)O)cc1)C(C)C)C(=O)C(F)(F)F (mixture of isomers) , the logged IC50 turned out to be 3.4 µM

So for CC(C)C(NC(=O)[C@@H]1CCCN1C(=O)[C@@H](NC(=O)c1ccc(C(=O)NCCCC(=O)OCC(=O)c2ccccc2)cc1)C(C)C)C(=O)C(F)(F)F (mixture of isomers) , the logged IC50 turned out to be 8.7 µM

So for CC(C)C(NC(=O)[C@@H]1CCCN1C(=O)[C@@H](NC(=O)c1ccc(C(=O)NCC(=O)OCc2ccccc2)cc1)C(C)C)C(=O)C(F)(F)F (mixture of isomers) , the logged IC50 turned out to be 4.4 µM

So for CC(C)C(NC(=O)[C@@H]1CCCN1C(=O)[C@@H](NC(=O)c1ccc(C(=O)NCc2ccc(Cl)cc2)cc1)C(C)C)C(=O)C(F)(F)F (mixture of isomers) , the logged IC50 turned out to be 5.1 µM

So for CC(C)C(NC(=O)[C@@H]1CCCN1C(=O)[C@@H](NC(=O)c1ccc(C(=O)NCc2ccc(N)cc2)cc1)C(C)C)C(=O)C(F)(F)F (mixture of isomers) , the logged IC50 turned out to be 3.8 µM

So for CC(C)C(NC(=O)[C@@H]1CCCN1C(=O)[C@@H](NC(=O)c1ccc(C(=O)N[C@@H](Cc2ccccc2)C(=O)OCc2ccccc2)cc1)C(C)C)C(=O)C(F)(F)F (mixture of isomers) , the logged IC50 turned out to be 9.5 µM
